MEASUREMENT DESCRIPTION: Dissociation constant (pKa)
Format: physicochemical
ASSAY ENDPOINT: pKa

Sample records with pKa:
| COMPOUND | ENDPOINT VALUE |
| --- | --- |
| CCCCc1nc(Cl)c(CC(=O)OC)n1Cc1ccc(NC(=O)c2cc([N+](=O)[O-])cc([N+](=O)[O-])c2O)cc1 | 4.3 |
| CCCCc1nc(Cl)c(CC(=O)OC)n1Cc1ccc(NC(=O)c2cc(Cl)ccc2NS(=O)(=O)C(F)(F)F)cc1 | 4.5 |
| CCCCc1nc(Cl)c(CC(=O)OC)n1Cc1ccc(NC(=O)c2cc(C)ccc2NS(=O)(=O)C(F)(F)F)cc1 | 4.5 |
| CCCCc1nc(Cl)c(CC(=O)OC)n1Cc1ccc(NC(=O)C2CCCCC2NS(=O)(=O)C(F)(F)F)cc1 (stereo in doubt; 50) | 7.6 |
| CCCCc1nc(Cl)c(CC(=O)OC)n1Cc1ccc(N(Cc2ccccc2)C(=O)c2ccccc2NS(=O)(=O)C(F)(F)F)cc1 | 4.5 |
| CCCCc1nc(Cl)c(CC(=O)OC)n1Cc1ccc(NC(=O)c2cc(I)ccc2NS(=O)(=O)C(F)(F)F)cc1 | 4.5 |

(a) CCCCc1nc(Cl)c(Cc2nnn[nH]2)n1Cc1ccc(-c2nnn[nH]2)cc1
(b) CCCCc1nc(Cl)c(CC(=O)OC)n1Cc1ccc(NC(=O)C2CCCCC2NS(=O)(=O)C(F)(F)F)cc1 (stereo in doubt; 51)
Which is greater in pKa, the first item a or the second item b ? Pick one; state its label.
b
(b: 7.6, a: 4)

---

TARGET OF ASSAY: Angiotensin II receptor (Rattus norvegicus, UniProt P29089+P25095+P35351)
MEASUREMENT DESCRIPTION: Inhibitory concentration that gave 50 percent displacement of specific binding of [3H]AII (2 nM) to Angiotensin II receptor
Format: protein assay
ASSAY ENDPOINT: IC50 (µM)

Sample records with IC50:
| COMPOUND | ENDPOINT VALUE |
| --- | --- |
| CCCCc1nc(Cl)c(COC)n1Cc1ccc(C(=O)Nc2ccccc2C(=O)O)cc1 | 8 |
| CCCCc1nc(Cl)c(Cc2nnn[nH]2)n1Cc1ccc(-c2nnn[nH]2)cc1 | 1.2 |
| CCCCc1nc(Cl)c(CC(=O)OC)n1Cc1ccc(NC(=O)c2c(C)cccc2C(=O)O)cc1 | 0.032 |
| CCCCc1nc(Cl)c(CC(=O)OC)n1Cc1ccccc1NC(=O)c1ccccc1C(=O)O | 100 |
| CCCCc1nc(Cl)c(CC(=O)OC)n1Cc1ccc(NC(=O)c2ccc(NS(=O)(=O)C(F)(F)F)cc2)cc1 | 84 |

(A) CCCCc1nc(Cl)c(CC(=O)OC)n1Cc1ccc([N+](=O)[O-])cc1
(B) CCCCc1nc(Cl)c(CC(=O)OC)n1Cc1ccc(NC(=O)c2ccc([N+](=O)[O-])cc2C(=O)O)cc1
Which is greater in IC50, the first item A or the second item B ? Pick one; state its label.
A

(I) CCCCc1nc(Cl)c(CC(=O)OC)n1Cc1ccc(NC(=O)c2cccc(NS(=O)(=O)C(F)(F)F)c2)cc1
(II) CCCCc1nc(Cl)c(COC)n1Cc1ccc(NC(=O)CC(C(=O)O)c2ccccc2)cc1 (centres undefined)
Min IC50? I | II Pick one; state its label.
I
(I: 1.3 µM, II: 2.8 µM)
